The values you see were collected from ChEMBL document CHEMBL1141609.

# TARGET OR SYSTEM: P2Y purinoceptor 6 (Rattus norvegicus)
# Sequence (Q63371 whole entry): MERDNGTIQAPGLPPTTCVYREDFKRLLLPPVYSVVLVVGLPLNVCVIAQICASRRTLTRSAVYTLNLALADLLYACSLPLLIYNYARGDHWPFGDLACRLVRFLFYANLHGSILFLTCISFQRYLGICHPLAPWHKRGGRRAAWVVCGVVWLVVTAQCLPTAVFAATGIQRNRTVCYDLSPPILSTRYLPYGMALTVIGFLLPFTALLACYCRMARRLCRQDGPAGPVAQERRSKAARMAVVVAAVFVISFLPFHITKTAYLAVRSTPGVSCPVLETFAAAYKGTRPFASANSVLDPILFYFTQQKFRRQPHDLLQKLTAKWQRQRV
# EXPERIMENT DESCRIPTION: Antagonist activity at rat P2Y6 receptor
pIC50: −log10 of the molar value.
ATTRIBUTE MEASURED: pIC50

*Q* Fill in reported pIC50 for this entry: `COc1ccccc1Nc1cc(S(=O)(=O)O)c(N)c2c1C(=O)c1ccccc1C2=O`
*A* < 4.00

---

# TARGET OR SYSTEM: P2Y purinoceptor 4 (Homo sapiens, UniProt P51582)
# Sequence (P51582 whole entry): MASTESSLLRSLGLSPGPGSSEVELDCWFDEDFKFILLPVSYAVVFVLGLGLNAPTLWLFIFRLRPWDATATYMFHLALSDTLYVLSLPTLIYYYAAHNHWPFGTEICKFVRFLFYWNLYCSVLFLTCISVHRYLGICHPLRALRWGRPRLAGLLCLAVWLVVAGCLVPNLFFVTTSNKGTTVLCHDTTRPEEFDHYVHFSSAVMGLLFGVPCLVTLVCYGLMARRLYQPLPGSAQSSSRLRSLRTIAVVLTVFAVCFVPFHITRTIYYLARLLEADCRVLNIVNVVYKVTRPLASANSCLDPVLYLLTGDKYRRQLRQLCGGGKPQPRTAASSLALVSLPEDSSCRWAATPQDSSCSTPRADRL
# EXPERIMENT DESCRIPTION: Antagonist activity at human P2Y4 receptor
ATTRIBUTE MEASURED: pIC50
Units for pIC50: none; it is -log10 of a concentration expressed in mol/L.

*Q* Fill in reported pIC50 for this entry: `COc1ccccc1Nc1cc(S(=O)(=O)O)c(N)c2c1C(=O)c1ccccc1C2=O`
*A* 4.30
